- METHOD: total protein half-life in vivo (active degradation + dilution); higher = more stable protein
- EXPERIMENTAL_CONTEXT: wild type E. coli NCM3722; growth: N-lim chemostat; doubling time 12 h
Here the recorded total protein half-life in vivo is given for each entry.
Give your result in h as a bare value.

{"CHAIN_SEQUENCE": "MIVRPQQHWLRRIFVWHGSVLSKISSRLLLNFLFSIAVIFMLPWYTHLGIKFTLAPFSILGVAIAIFLGFRNNAGYARYVEARKLWGQLMIASRSLLREVKTTLPDSASVREFARLQIAFAHCLRMTLRKQPQAEVLAHYLKTEDLQRVLASNSPANRILLIMGEWLAVQRRNGQLSDILFISLNDRLNDISAVLAGCERIAYTPIPFAYTLILHRTVYLFCIMLPFALVVDLHYMTPFISVLISYTFISLDCLAEELEDPFGTENNDLPLDAICNAIEIDLLQMNDEAEIPAKILPDRHYQLT", "total protein half-life in vivo (h)": 8.65}
{"CHAIN_SEQUENCE": "MSSRNNPARVAIVMGSKSDWATMQFAAEIFEILNVPHHVEVVSAHRTPDKLFSFAESAEENGYQVIIAGAGGAAHLPGMIAAKTLVPVLGVPVQSAALSGVDSLYSIVQMPRGIPVGTLAIGKAGAANAALLAAQILATHDKELHQRLNDWRKAQTDEVLENPDPRGAA [P0AG18]", "total protein half-life in vivo (h)": 6.68}

Pending sequence:
Q: Read off the recorded total protein half-life in vivo for MAKNYYDITLALAGICQSARLVQQLAHQGHCDADALHVSLNSIIDMNPSSTLAVFGGSEANLRVGLETLLGVLNASSRQGLNAELTRYTLSLMVLERKLSSAKGALDTLGNRINGLQRQLEHFDLQSETLMSAMAAIYVDVISPLGPRIQVTGSPAVLQSPQVQAKVRATLLAGIRAAVLWHQVGGGRLQLMFSRNRLTTQAKQILAHLTPEL
A: 10.6
